# Tested on: human ether-à-go-go-related gene (hERG) potassium channel (human);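 note: peak tail current of the secondary pulse compared with the same well before compound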
# Sequence (Q12809 whole entry, looked up): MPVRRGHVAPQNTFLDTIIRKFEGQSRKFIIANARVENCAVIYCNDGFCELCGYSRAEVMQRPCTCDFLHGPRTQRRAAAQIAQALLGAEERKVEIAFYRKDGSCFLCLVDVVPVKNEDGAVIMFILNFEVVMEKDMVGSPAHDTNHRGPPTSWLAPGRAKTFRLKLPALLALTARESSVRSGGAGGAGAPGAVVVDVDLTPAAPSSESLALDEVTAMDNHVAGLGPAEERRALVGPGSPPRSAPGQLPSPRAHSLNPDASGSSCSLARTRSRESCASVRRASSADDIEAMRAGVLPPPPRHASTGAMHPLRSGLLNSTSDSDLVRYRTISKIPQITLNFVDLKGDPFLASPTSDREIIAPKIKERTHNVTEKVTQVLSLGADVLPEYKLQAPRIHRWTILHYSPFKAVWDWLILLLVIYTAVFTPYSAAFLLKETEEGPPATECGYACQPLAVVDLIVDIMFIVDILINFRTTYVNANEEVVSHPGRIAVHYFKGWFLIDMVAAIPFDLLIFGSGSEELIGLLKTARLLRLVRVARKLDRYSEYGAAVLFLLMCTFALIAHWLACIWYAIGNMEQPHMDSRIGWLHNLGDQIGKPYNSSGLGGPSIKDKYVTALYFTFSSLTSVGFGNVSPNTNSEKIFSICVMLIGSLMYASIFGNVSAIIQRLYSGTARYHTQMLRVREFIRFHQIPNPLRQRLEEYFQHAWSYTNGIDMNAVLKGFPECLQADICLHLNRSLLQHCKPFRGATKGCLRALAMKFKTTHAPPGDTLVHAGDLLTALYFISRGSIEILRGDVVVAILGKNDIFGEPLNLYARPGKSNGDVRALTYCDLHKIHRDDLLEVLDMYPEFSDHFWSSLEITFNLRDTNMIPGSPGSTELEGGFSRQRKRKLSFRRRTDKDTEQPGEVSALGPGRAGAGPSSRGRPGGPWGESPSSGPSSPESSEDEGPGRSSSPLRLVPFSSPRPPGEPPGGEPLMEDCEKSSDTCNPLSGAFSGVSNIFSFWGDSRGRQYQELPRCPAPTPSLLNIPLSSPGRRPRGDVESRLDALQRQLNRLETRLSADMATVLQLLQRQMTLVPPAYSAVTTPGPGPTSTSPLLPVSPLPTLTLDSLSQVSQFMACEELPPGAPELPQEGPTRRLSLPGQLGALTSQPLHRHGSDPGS
# Protocol: primary screen, population patch clamp on CHO cells stably expressing hERG; higher = less effect of the substance
About 14,000 (4.5%) of roughly 310,000 compounds showed an effect of 50% or more. Effects have a minus sign here. This excerpt belongs to a sample that is enriched for strong results.
Would you mind telling me the reported hERG current change (%, negative = inhibition) at 10uM of each entry?
The figure you give is taken to be in %; do not add the unit.

Request: Reported hERG current change (%, negative = inhibition) at 10uM for `O=C(NNc1cc(Cl)ccc1Cl)c1cccs1` : what is it?
Result: 7.63

Request: Next up: `O=C(NCc1ccc2c(c1)OCO2)Nc1ccc([N+](=O)[O-])cc1`
Result: 21.1

Request: Let us now turn to Cc1cc(C)n(CCNC(=O)C2CCC(=O)N(Cc3ccc(Cl)cc3)C2)n1 (stereo not drawn)
Result: 15.2

Request: Now the molecule `O=C(OCC(=O)N1CCOCC1)c1ccc(N2CCOCC2)c([N+](=O)[O-])c1`
Result: 19.9

Request: Moving on to `Cl.O=C(NN1CCN(Cc2ccccc2)CC1)c1ccc(N2CCOCC2)c([N+](=O)[O-])c1`
Result: -66.6

Request: Same question, `COc1ccc(-c2nn3c(C4CCCCC4)nnc3s2)cc1OC` this time
Result: -15.2

Request: Please do the same for `O=c1[nH]nc(-c2ccc(NCCCO)c([N+](=O)[O-])c2)c2ccccc12` as well.
Result: -9.98

Request: Follow-up entry: COc1cc(C2NC(=S)NC(c3ccccc3)=C2C(C)=O)ccc1O (stereo not drawn)
Result: 15.4

Request: Would you kindly repeat that for Cc1ccn(CCNC(=O)C2CCC(=O)N(Cc3ccc(Cl)cc3)C2)n1 (stereo not drawn) ?
Result: -3.57

Request: Further, for `O=C(c1cnc2n(c1=O)CCS2)N1CCN(c2ccccc2F)CC1` ?
Result: -5.65

Request: Can you check `Cc1[nH]c2ccccc2c1/C=N/NC(N)=S` next?
Result: 2.1

Request: Do the same for `CC1CCN(c2ccc(C(=O)N3CCOCC3)cc2[N+](=O)[O-])CC1` please
Result: -0.762

Request: Moving on to the next molecule: `Nc1ccc(C(=O)OCC(=O)N2CCc3ccccc3C2)cc1[N+](=O)[O-]`
Result: -21.1

Request: Continue with `COc1ccc(OC)c(-c2nc(CN3CCN(C(=O)c4ccco4)CC3)c(C)o2)c1`
Result: -21.9

Request: Also check `CO/N=C(\C(=O)O)c1csc(NN=C(C)C)n1`
Result: 16.2

Request: And then `N#Cc1ccc(-c2ccc3c(c2)OCO3)nc1SCC(=O)OCc1ccccc1` , what is it?
Result: 9.22

Request: Also check `COc1ccc(S(=O)(=O)N(C)CC(=O)NCc2ccc3c(c2)OCO3)cc1`
Result: -8.31

Request: CCC(C)(C)NC(=O)C(C(C)C)N(CC1CCCO1)C(=O)CNS(=O)(=O)c1ccccc1 (stereo not drawn) ?
Result: -2.21

Request: Quick one: `O=C(O)C(=O)O.OCCN(Cc1ccccc1)Cc1ccccc1O`
Result: 5.17

Request: Then this molecule: `Cc1ccc(S(=O)(=O)N(C)CCCC(=O)NCc2ccc3c(c2)OCO3)cc1`
Result: -23.5

Request: Consider next the molecule `CCN(CC(=O)Nc1c(F)cccc1F)C(=O)c1ccc2c(c1)S(=O)(=O)N=C1CCCCCN12` in the same way.
Result: 9.69

Request: Same question, Cc1ccc(CN2CCNC(=O)C2CC(=O)NCC(F)(F)F)o1 (stereo not drawn) this time
Result: 14.1

Request: Queued: O=C(c1cnc2n(c1=O)CCS2)N1CCN(C(c2ccccc2)c2ccc(Cl)cc2)CC1 (stereo not drawn)
Result: -52.4

Request: Lookup O=C(OC(C(=O)NC1CCCC1)c1ccccc1F)c1ccco1 (stereo not drawn)
Result: 5.25

Request: Again, but for Cc1ccn(CCNC(=O)C2CCC(=O)N(CCc3ccc(Cl)cc3)C2)n1 (stereo not drawn)
Result: -55.3

Request: And `O=C(c1cc([N+](=O)[O-])ccc1Cl)N1CCN(c2ccc([N+](=O)[O-])cc2)CC1` ?
Result: -73.6

Request: Likewise for `COc1ccccc1-n1cnc2c(c1=O)c1nc3ccccc3nc1n2-c1ccc(C)cc1` ?
Result: -19.7
